- protocol-summary: Cytotoxicity against human U937 cells assessed as cell growth at 50 uM after 24 hrs by alamar blue assay
- Assay type: cell-based, U-937
- experimental-parameters: read-out: Activity
reported-property: viability at 24 h, 50 µM (%)
Express it in %; write the number only.

Recorded viability at 24 h, 50 µM for COc1ccc2cc1Oc1ccc(cc1)C[C@H]1NCCc3cc(OC)c(cc31)Oc1c(O)c(OC)cc3c1CCN(C)[C@@H]3C2 [NORPANURENSINE] , please? 113

// viability at 24 h, 50 µM lookup, key: COc1ccc2cc1Oc1ccc(cc1)C[C@H]1c3cc(c(OC)cc3CCN1C)Oc1c(O)c(OC)cc3c1[C@H](C2)N(C)CC3 [FANGCHINOLINE] 102

Look up viability at 24 h, 50 µM for this molecule: COc1ccc2cc1Oc1ccc(cc1)C[C@H]1c3c(cc(OC)c(O)c3Oc3cc4c(cc3OC)CCN(C)[C@@H]4C2)CCN1C [HOMOAROMOLINE] 80

* * *

- Tested on: U-937
- protocol-summary: Induction of rat C/EBPalpha expression transfected in human U937 cells at 12 uM after 24 hrs by luciferase reporter gene assay relative to ATRA
- Type: functional
Can you tell me fold change (FC) for the items I'm about to list?

What value of fold change (FC) has been recorded for this entry: "COc1ccc2cc1Oc1ccc(cc1)C[C@H]1c3c(cc4c(c3Oc3cc5c(cc3OC)CCN(C)[C@@H]5C2)OCO4)CCN1C" 1

Report fold change (FC) for "COc1ccc2cc1-c1cc(ccc1O)C[C@H]1c3cc4c(cc3CCN1C)Oc1c(OC)cc3c(c1O4)[C@H](C2)N(C)CC3" please. 1.9

Name the reported fold change (FC) value associated with the compound "COc1cc2c3cc1Oc1c(O)c(OC)cc4c1[C@@H](Cc1ccc(O)c(c1)Oc1ccc(cc1)C[C@@H]3N(C)CC2)N(C)CC4" 2.6

Tell me the measured fold change (FC) of "COc1ccc2cc1Oc1ccc(cc1)C[C@@H]1c3cc(c(OC)cc3CCN1C)Oc1c(OC)c(OC)cc3c1[C@@H](C2)N(C)CC3" , please. 0.75

* * *

- protocol-summary: Cytotoxicity against human U937 cells assessed as cell growth at 6.2 uM after 24 hrs by alamar blue assay
- Type: cell-based, U-937
- experimental-parameters: read-out: Activity
reported-property: viability at 24 h, 6.2 µM (%)
Entry rule: numbers only, all in %.

Quick one: viability at 24 h, 6.2 µM of COc1ccc2cc1Oc1ccc(cc1)CC1=NCCc3cc(OC)c(OC)c(c31)Oc1cc3c(cc1OC)CCN(C)[C@@H]3C2 [EPISTEPHANINE] ? 99

* * *

- protocol-summary: Cytotoxicity against human U937 cells assessed as cell growth at 25 uM after 24 hrs by alamar blue assay
- Type: cell-based, U-937
- experimental-parameters: read-out: Activity
reported-property: viability at 24 h, 25 µM (%)
Field format: number, assumed %, no unit text.

Entry "COc1ccc2cc1Oc1ccc(cc1)C[C@H]1c3cc(c(OC)cc3CCN1C)Oc1c(OC)c(OC)cc3c1[C@H](C2)N(C)CC3" : reported viability at 24 h, 25 µM = ? 69

Recorded viability at 24 h, 25 µM of "COc1ccc2cc1Oc1ccc(cc1)C[C@@H]1c3cc(c(OC)cc3CCN1C)Oc1c(OC)c(OC)cc3c1[C@H](C2)N(C)CC3" , please. 69

GET /values?readout=viability at 24 h, 25 µM&item= "COc1cc2c(cc1Oc1ccc(OC)c3c1C[C@H]1c4c(cc(OC)c(OC)c4-3)CCN1C)C[C@H]1c3c(cc(OC)c(OC)c3-2)CCN1C" 61

Any idea what viability at 24 h, 25 µM was measured for "COc1cc2c3cc1Oc1c(OC)c(OC)cc4c1[C@H](Cc1cc5c(c(c1)Oc1ccc(cc1)C[C@@H]3N(C)CC2)OCO5)N(C)CC4" ? 105

Given the molecule "COc1cc2c(cc1O)[C@H]1Cc3c(cc(OC)c(OC)c3Oc3cc4c(cc3OC)CCN(C)[C@@H]4Cc3ccc(O)cc3)[C@@H](C2)N1C" , what is its reported viability at 24 h, 25 µM? 108
